Entry source: paper PMC4474691

Biological target: CRM1^HA (Mus musculus, UniProt Q6P5F9, L431A/V430A/V432A)
Construct: His-ZZ (cleaved yes); made in house; host or cells: Escherichia coli BL21-CodonPlus (DE3)
Sequence (Q6P5F9 1-1062 V430A/L431A/V432A limits assumed): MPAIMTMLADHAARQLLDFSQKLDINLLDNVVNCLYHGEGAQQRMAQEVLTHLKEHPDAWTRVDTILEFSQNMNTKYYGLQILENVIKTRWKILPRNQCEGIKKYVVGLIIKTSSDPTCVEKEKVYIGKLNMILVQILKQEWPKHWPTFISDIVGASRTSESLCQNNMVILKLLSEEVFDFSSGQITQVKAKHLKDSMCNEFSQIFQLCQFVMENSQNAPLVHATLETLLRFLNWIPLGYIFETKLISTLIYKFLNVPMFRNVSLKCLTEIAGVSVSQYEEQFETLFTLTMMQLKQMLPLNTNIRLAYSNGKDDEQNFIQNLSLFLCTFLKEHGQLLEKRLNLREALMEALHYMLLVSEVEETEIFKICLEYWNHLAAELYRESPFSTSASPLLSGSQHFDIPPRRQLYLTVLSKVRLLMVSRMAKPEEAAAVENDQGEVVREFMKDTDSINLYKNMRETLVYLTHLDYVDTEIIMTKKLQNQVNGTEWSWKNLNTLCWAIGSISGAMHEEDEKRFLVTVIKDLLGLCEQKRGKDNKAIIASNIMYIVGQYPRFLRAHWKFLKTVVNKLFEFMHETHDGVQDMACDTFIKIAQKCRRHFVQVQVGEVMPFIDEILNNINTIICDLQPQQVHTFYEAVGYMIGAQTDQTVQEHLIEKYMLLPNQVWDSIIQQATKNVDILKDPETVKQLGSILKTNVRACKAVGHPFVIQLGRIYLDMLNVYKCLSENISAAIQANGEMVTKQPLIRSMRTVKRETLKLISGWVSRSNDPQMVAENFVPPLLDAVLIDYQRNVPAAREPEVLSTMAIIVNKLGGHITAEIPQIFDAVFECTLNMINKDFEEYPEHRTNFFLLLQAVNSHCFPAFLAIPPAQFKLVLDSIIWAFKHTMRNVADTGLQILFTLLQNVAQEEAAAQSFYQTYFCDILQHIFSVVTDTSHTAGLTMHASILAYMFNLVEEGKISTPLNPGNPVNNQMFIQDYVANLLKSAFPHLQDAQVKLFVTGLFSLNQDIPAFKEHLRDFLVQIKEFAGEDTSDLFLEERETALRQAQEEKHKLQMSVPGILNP
Assay: Isothermal titration calorimetry, CRM1^HA / NES
Format: binding
pKd: −log10 of the molar value. Where no end group is shown, it is not given here.

[
  {
    "SUBSTANCE": "Ac-EAIQDLCLAVEEVSLRK [peptide AL]",
    "pKd": 7.24
  }
]

###

The following substances are listed with their measured pKd values.
Target: CRM1^HA (Mus musculus, UniProt Q6P5F9, L431A/V430A/V432A)
Construct: His-ZZ (cleaved yes); made in house; host or cells: Escherichia coli BL21-CodonPlus (DE3)
Assay: Isothermal titration calorimetry, CRM1^HA / NES
Type: binding
Conditions: ITC, NES ligand (35–180 μM) titrated onto CRM1^HA (2–14 μM), 20°C, 20 mM HEPES pH 7.4, 50 mM NaCl, 1 mM TCEP, 1 mM MgCl2; independent binding sites model; read-out: KD
pKd: −log10 of the molar value. Where no end group is shown, it is not given here.

[
  {
    "SUBSTANCE": "DLCLAVEEVSLRK [TFP-mutA(NES), NES of NPM mutant A as C-terminal fusion to teal fluorescent protein]",
    "pKd": 5.62
  },
  {
    "SUBSTANCE": "YFP-PKI(NES): previously described YFP-PKI(NES) construct (LALKLAGLDI; fusion to YFP (carrier omitted); linker stated to be 2 residues longer than in TFP construct) [reference compound]",
    "pKd": 7.74
  },
  {
    "SUBSTANCE": "Ac-QDLWQSLAQVSLRK [peptide ES]",
    "pKd": 7.12
  },
  {
    "SUBSTANCE": "DLWQSLAQVSLRK [TFP-mutE(NES), NES of NPM mutant E as C-terminal fusion to teal fluorescent protein]",
    "pKd": 5.98
  },
  {
    "SUBSTANCE": "Ac-EAIQDLWQSLAQVSLRK [peptide EL]",
    "pKd": 7.51
  }
]
